Target: Phosphatidylinositol 4,5-bisphosphate 3-kinase catalytic subunit alpha isoform (Homo sapiens, UniProt P42336)
Sequence (P42336 whole entry, canonical isoform): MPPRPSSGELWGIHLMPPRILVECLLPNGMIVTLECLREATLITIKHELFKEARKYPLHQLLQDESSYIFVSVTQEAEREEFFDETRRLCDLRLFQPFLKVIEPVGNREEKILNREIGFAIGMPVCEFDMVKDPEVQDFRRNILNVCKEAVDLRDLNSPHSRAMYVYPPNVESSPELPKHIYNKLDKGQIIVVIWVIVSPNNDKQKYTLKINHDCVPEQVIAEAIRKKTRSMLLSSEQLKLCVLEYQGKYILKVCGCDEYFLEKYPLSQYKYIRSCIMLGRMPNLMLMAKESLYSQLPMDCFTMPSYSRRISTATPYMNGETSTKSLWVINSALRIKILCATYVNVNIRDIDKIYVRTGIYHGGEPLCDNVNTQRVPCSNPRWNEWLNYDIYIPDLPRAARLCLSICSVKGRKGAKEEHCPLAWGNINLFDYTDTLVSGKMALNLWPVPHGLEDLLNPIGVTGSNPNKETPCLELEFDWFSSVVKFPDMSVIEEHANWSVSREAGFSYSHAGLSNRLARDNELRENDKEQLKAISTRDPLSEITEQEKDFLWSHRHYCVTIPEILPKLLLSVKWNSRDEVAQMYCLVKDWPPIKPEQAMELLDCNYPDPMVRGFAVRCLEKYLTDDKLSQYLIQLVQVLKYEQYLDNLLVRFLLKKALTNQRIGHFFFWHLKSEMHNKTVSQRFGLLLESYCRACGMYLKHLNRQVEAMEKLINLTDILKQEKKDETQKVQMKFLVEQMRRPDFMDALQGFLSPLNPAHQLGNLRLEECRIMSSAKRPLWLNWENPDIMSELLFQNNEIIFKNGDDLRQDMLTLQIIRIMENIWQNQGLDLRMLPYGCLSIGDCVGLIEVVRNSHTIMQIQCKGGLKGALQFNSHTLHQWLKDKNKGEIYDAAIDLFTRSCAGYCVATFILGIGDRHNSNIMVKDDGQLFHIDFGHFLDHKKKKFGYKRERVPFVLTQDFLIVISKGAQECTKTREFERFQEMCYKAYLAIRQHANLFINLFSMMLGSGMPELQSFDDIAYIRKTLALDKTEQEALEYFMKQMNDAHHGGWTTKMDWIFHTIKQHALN
Experiment: Inhibition of human recombinant PI3K-alpha using phosphatidylinositol biphosphate as substrate preincubated for 15 mins followed by substrate addition measured after 60 mins by HTRF assay
Exercise: state measured pIC50 for each of the compounds provided.
Answers are plain numbers, as −log10 of the molar value.

For orientation, consider the following solved cases.
substance_smiles: CN(C)C(=O)[C@H]1CC[C@H](Oc2nc(-c3cccc4[nH]ncc34)nc(N3CCOCC3)n2)CC1
recorded_metric: pIC50
numeric_result: 7.22
--
substance_smiles: CS(=O)(=O)N1CCN(C(=O)CNc2nc(-c3cccc(O)c3)nc(N3CCOCC3)n2)CC1
recorded_metric: pIC50
numeric_result: 5.97
--
substance_smiles: Nc1nc(-c2cccc(O)c2)nc(N2CCOCC2)n1
recorded_metric: pIC50
numeric_result: 6.17
--
substance_smiles: NC(=O)c1cccc(Oc2nc(-c3cccc4[nH]ncc34)nc(N3CCOCC3)n2)c1
recorded_metric: pIC50
numeric_result: 6.57
--
substance_smiles: CN(C)C(=O)c1cccc(Nc2nc(-c3cccc4[nH]ncc34)nc(N3CCOCC3)n2)c1
recorded_metric: pIC50
numeric_result: 7.22
--
substance_smiles: CN(C)C(=O)N1CCC(Oc2nc(-c3cccc4[nH]ncc34)nc(N3CCOCC3)n2)CC1
recorded_metric: pIC50
numeric_result: 7.22
--
substance_smiles: COC(=O)CNc1nc(-c2cccc(O)c2)nc(N2CCOCC2)n1
recorded_metric: pIC50
numeric_result: 5.93

Please indicate pIC50 recorded for CN(C)C(=O)c1cc(Oc2nc(-c3cccc4[nH]ncc34)nc(N3CCOCC3)n2)cs1
7.00
